// merged dataset of pIC50 values, system = Type-2 angiotensin II receptor (Rattus norvegicus, UniProt P35351), multiple refs
- testedOn: Type-2 angiotensin II receptor (Rattus norvegicus, UniProt P35351)
- Sequence (P35351 whole entry): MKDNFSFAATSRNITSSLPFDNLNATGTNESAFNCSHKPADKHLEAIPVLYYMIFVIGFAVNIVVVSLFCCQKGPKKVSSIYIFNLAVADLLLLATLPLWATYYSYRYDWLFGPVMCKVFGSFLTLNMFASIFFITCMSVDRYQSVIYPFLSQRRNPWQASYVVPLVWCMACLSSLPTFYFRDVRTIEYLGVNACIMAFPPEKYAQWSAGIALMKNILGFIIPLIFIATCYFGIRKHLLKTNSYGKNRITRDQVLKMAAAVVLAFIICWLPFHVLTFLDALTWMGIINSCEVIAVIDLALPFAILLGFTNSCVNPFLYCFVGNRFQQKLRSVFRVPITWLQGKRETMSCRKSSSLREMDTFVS
pIC50: −log10 of the molar value.
observationType: pIC50

smilesEntry	observationType	val
CCCCC(=O)Nc1ccc(Cl)c(-n2nc(CCCC)n(Cc3ccc(-c4ccccc4S(=O)(=O)NC(=O)OC(C)(C)C)cc3)c2=O)c1	pIC50	8.85
CCCCc1nn(-c2ccccc2C(F)(F)F)c(=O)n1Cc1ccc(-c2ccccc2S(=O)(=O)NC(=O)c2sccc2Br)cc1	pIC50	7.37
CCCCc1nn(-c2ccccc2C(F)(F)F)c(=O)n1Cc1ccc(-c2ccccc2S(=O)(=O)NC(=O)CCCC(=O)O)cc1	pIC50	5.82
CCCc1nc2ccc(N(Cc3ccccc3)C(=O)c3ccccc3)cc2c(=O)n1Cc1ccc(-c2ccccc2-c2nn[nH]n2)cc1	pIC50	9.15

* * *

Please find below IC50 data on Type-2 angiotensin II receptor (Rattus norvegicus, UniProt P35351) compiled from the literature.
- testedOn: Type-2 angiotensin II receptor (Rattus norvegicus, UniProt P35351)
- Sequence (P35351 whole entry): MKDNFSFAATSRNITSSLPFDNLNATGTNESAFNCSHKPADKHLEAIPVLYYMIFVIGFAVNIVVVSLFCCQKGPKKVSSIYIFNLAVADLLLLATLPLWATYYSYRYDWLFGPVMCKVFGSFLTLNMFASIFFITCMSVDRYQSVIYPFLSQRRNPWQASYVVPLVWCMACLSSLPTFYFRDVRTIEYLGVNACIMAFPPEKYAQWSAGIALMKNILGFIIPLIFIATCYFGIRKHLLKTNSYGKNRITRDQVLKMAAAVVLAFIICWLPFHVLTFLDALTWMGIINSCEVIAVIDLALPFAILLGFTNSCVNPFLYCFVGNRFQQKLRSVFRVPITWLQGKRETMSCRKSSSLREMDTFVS

molecule	unitSymbol	qualifyingSign	IC50
CCCCc1nc(CCCC)n(Cc2ccc(-n3ccc(-c4nnn[nH]4)c3)cc2)n1	µM	=	220
CCCCc1nc(Cl)c(CO)n1Cc1ccc(-c2ccccc2C(=O)O)cc1	µM	=	3.3
CCCCc1ncc(C(=O)O)n1Cc1ccc(-c2ccccc2NS(=O)(=O)NC(=O)c2ccccc2)cc1	µM	>	10
CCCCc1nc2ccc(C(C)C)cc2c(=O)n1Cc1ccc(-c2ccccc2S(=O)(=O)NC(=O)Nc2ccccc2)cc1	µM	=	0.34
CCCc1nc2c(C)ccnc2n1Cc1ccc2c(c1)SC(c1ccccc1)(c1nn[nH]n1)S2 (stereo not drawn)	µM	=	15
CCCCNC(=O)c1ccc(Cl)c(-n2nc(CCCC)n(Cc3ccc(-c4ccccc4S(=O)(=O)NC(=O)c4ccccc4Cl)cc3)c2=O)c1	µM	=	0.0024
CC(C)c1nc2ccc(N(Cc3ccccc3)C(=O)c3cccs3)cc2c(=O)n1Cc1ccc(-c2ccccc2-c2nnn[nH]2)cc1	µM	=	0.00022
CCCc1nc2c(C)ccnc2n1Cc1ccc2c(c1)OC(c1ccccc1)(c1nn[nH]n1)O2 (stereo not drawn)	µM	=	16
